Biological target: human α2β2γ2 GABAA receptor (Homo sapiens, UniProt P18507+P47869+P47870, DEL377-384, form not given)
Assay: Whole-cell patch clamp, HEK293 cells expressing α2β2γ2 GABAARs
Format: cell-based
Conditions: read-out: Carisoprodol direct gating EC50, relative to maximum current elicited by carisoprodol
measurementLabel: EC50 (µM)
Kindly provide the numeric value in µM only, without the unit symbol.

Query: Using the record for CCCC(C)(COC(N)=O)COC(=O)NC(C)C (stereo not shown) , report its EC50.
Result: 829

The values you see were collected from paper PMC4737552.
